Biological target: MALT1-GS-Ub (6-His-hMALT-1 residues 339-715 fused to ubiquitin) (Homo sapiens (Human))
Assay: MALT1 Protease Assay 1 (Assay 1), cleavage of fluorogenic tetrapeptide substrate
Type: biochemical
Settings: MALT1-GS-Ub 300-600 nM, Ac-LVSR-AMC 100 μM, 30 min preincubation, 60 min read
Method: MALT1 Protease Assay 1 (Assay 1) MALT1 protease activity was assessed in vitro by measuring the cleavage of a fluorogenic tetrapeptide substrate. […] Test compounds dissolved in DMSO were dispensed into assay plates (384-well, black, shallow ProxiPlates). […] 2 μl substrate solution was then added and the fluorescence (excitation 360 nm, emission 460 nm) read every 15 minutes using a suitable plate reader. […] IC50 values were calculated using GraphPad Prism using a 4-parameter non-linear regression curve fit.
Record form. Attribute: IC50. Fill in for each entry.
Numbers only, in µM.

Look over these answered cases.
>>> result_value("CC1(C#N)CN(C(=O)Nc2cnc(-n3nccn3)c(Cl)c2)c2cccc(Br)c2O1 (centres unmarked)")
0.85
>>> result_value("CC[C@@H]1CN(C(=O)Nc2cnc(-n3nccn3)c(Cl)c2)c2cncc(Br)c2N1C")
0.97
>>> result_value("CC1CN(C(=O)Nc2cnc(-n3nccn3)c(Cl)c2)c2cncc(Br)c2O1 (centres unmarked)")
1.5
>>> result_value("O=C(Nc1cnc(-n2nccn2)c(Cl)c1)N1CC(C(F)(F)F)Oc2c(Br)cncc21 (centres unmarked) [Example 38]")
0.73

# ---- query compound ----
Ask | So what does the record say about IC50 for CC(C)[C@@H]1CN(C(=O)Nc2cnc(-n3nccn3)c(Cl)c2)c2cncc(Br)c2N1C ?
Reply | 0.73

----------
Biological target: MALT1-GS-Ub (6-His-hMALT-1 residues 339-715 fused to ubiquitin) (Homo sapiens (Human), UniProt Q9UDY8)
Sequence (Q9UDY8 other isoform, or with tags, fused parts or gaps): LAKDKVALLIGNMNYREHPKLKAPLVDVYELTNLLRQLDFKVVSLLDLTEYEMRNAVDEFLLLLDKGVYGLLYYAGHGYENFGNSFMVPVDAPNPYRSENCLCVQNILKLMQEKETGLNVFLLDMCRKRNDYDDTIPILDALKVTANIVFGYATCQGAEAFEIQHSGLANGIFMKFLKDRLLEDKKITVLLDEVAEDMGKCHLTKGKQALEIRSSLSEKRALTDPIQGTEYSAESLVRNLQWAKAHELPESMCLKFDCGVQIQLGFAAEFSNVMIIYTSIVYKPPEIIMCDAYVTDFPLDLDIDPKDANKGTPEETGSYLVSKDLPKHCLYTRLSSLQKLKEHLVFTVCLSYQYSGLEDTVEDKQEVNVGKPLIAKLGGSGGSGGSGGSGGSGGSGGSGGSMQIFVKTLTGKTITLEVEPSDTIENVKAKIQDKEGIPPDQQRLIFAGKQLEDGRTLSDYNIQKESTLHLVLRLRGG
Each record is given fulfilled if its reported IC50 is strictly below 2000 nM. Records at or above 2000 nM are given not fulfilled.

Ask | IC50 under 2000 nM? Item: CC1(C)CN(C(=O)Nc2cnc(-n3nccn3)c(Cl)c2)c2cncc(C3CC3)c2O1
Reply | not fulfilled

Ask | Would you kindly repeat that for O=C(Nc1cnc(-n2nccn2)c(C(F)(F)F)c1)N1CCCc2c(-c3nccs3)cccc21 ?
Reply | fulfilled

----------
Assay system FL hMALT1 enzyme (Homo sapiens (Human)); read-out recorded as IC50.
Give bare numbers, in µM.

Provide the reported IC50 of each entry below, same order.
1. N#CC1Cc2c(Br)cncc2N(C(=O)Nc2cnc(-n3nccn3)c(Cl)c2)C1 (stereo not shown) [Example 58]
2. CC1(C)CN(C(=O)Nc2cnc(-n3nccn3)c(Cl)c2)c2cccc(Br)c2O1 [Example 13]
3. O=C(Nc1cnc(-n2nccn2)c(C(F)(F)F)c1)N1CCCc2c(-c3nccs3)cccc21 [Example 10]
4. O=C(Nc1cnc(-n2nccn2)c(Cl)c1)N1CC2(CCOC2)Oc2c(Br)cncc21 (stereo not shown) [Example 27]

Reply |
1.29
1.3
1
0.9

----------
Reported values: pIC50 for MALT1-GS-Ub (6-His-hMALT-1 residues 339-715 fused to ubiquitin) (Homo sapiens (Human)), one per item.
One number for each entry, as −log10 of the molar value.

Reference set (2 entries):
>>> result_value("CC1(C)CN(C(=O)Nc2cnc(-n3nccn3)c(C(F)(F)F)c2)c2cccc(Br)c2O1 [Example 23]")
6.07
>>> result_value("O=C(Nc1cnc(-n2nccn2)c(C(F)(F)F)c1)N1CCCc2c(-c3ccccc3)cccc21 [Example 12]")
5.64

Ask | Item Cc1ncc2c(c1Br)OCCN2C(=O)Nc1cnc(-n2nccn2)c(Cl)c1 [Example 41] with MALT1-GS-Ub (6-His-hMALT-1 residues 339-715 fused to ubiquitin) (Homo sapiens (Human)) - pIC50?
Reply | 5.41
